Test system: C. neoformans growth, alamar blue, 24 h
Test: antifungal activity, alamar blue, dry powder, counter-screen for C. neoformans cell wall antifungals, dose response (AID 743128)
measured.property: AC50

For each of the items listed, what is its AC50?
1. COC(=O)C1=C(C)N(Cc2ccc(Br)cc2)C(=S)NC1c1ccc(OC)cc1 (stereo not given)
2. CCOC(=O)c1c(NC(=O)CN2CCN(C)CC2)sc(C)c1-c1ccc(C)cc1
3. Cc1ccccc1OCCn1c(=S)[nH]c2ccccc21
4. CCOC(=O)c1c(-c2ccc(C(C)(C)C)cc2)csc1NC(=O)CN1CCN(C)CC1

Result ::
1. 9.31 µM
2. 25.7 µM
3. 8.04 µM
4. 15 µM

Would you mind giving AC50 for every compound in the list below?
1. CCOc1ccc(OCCn2c(=S)[nH]c3ccccc32)cc1
2. Cc1ccc(C(C)C)c(OCCn2c(=S)[nH]c3ccccc32)c1
3. Cc1ccc2c(c1)[nH]c(=S)n2CCOc1ccccc1
4. Cc1ccc(OCCn2c(=S)[nH]c3ccccc32)cc1
5. Fc1cccc2c1[nH]c(=S)n2CCOc1ccccc1
6. S=c1[nH]c2ccccc2n1CCOc1ccccc1
7. Fc1ccccc1OCCn1c(=S)[nH]c2ccccc21
8. COC(=O)C1=C(C)N(Cc2ccc(F)cc2)C(=S)NC1c1cccc(F)c1 (stereo not given)

Result ::
1: 25.5 µM; 2: 4.14 µM; 3: 24.3 µM; 4: 9.48 µM; 5: 25.4 µM; 6: 24.9 µM; 7: 25.4 µM; 8: 18.3 µM

I would be grateful if you could provide AC50 for each of the following entries.
1. S=c1[nH]c2cccc(Cl)c2n1CCOc1ccccc1
2. S=c1[nH]c2ccccc2n1CCOc1ccc(Cl)cc1
3. COC(=O)C1=C(C)N(Cc2ccccc2)C(=S)NC1c1ccc(Br)cc1 (stereo not given)
4. Cc1ccc(OCCn2c(SCCO)nc3ccccc32)c(C(C)C)c1
5. COC(=O)C1=C(C)N(Cc2ccc(Cl)cc2)C(=S)NC1c1ccc(Br)cc1 (stereo not given)
6. COC(=O)C1=C(C)N(Cc2ccc(Br)cc2)C(=S)NC1c1ccc(F)cc1 (stereo not given)
7. CCOC(=O)c1c(-c2ccc(-c3ccccc3)cc2)csc1NC(=O)CNCCN(C)C

Result ::
1: 6.35 µM; 2: 10.9 µM; 3: 8.1 µM; 4: 25.1 µM; 5: 1.97 µM; 6: 4.9 µM; 7: 21.7 µM

Query :: Suppose we examine the compound CCOC(=O)c1c(-c2ccc(C(C)(C)C)cc2)csc1NC(=O)CN1CCN(CC)CC1 ; what AC50 value has been reported?
Result :: 15.7 µM
